targetOfAssay: T1, Ets-1 ΔN301 (murine, UniProt P27577 301-440)
T1 sequence: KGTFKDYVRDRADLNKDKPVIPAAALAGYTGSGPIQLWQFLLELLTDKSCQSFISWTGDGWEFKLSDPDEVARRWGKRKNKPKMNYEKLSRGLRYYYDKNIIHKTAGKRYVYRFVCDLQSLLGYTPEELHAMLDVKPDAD
experimentNotes: NMR 15N-HSQC titration
pKd: −log10 of the molar value.
parameterMeasured: pKd

[Q] Suppose we examine the binder DNANSP9 (dsDNA) DNA 1: GCACTCTAG DNA 2: CTAGAGTGC ; what pKd value has been reported?
[A] ~5.00
